PROTOCOL TEXT: qHTS to identify inhibitors of the type 1 interferon - major histocompatibility complex class I in skeletal muscle: Secondary screen by immunofluorescence; also: nearly all actives have a fitted effect of over 70% in size
CONDITION DETAILS: C25cl48 myoblasts, IFN-b induced HLA-ABC immunofluorescence, 24 h, Viability; series mostly up to 49.8 µM
Description: […]
Records with an inconclusive call do not appear. Active and inactive are the calls of the source. Calls follow the shape of the dose curve; as a rule, active = well fitted inhibition curve with a large enough effect; inconclusive = small, poorly fitted or top-dose-only effect; inactive = no such curve, though single readings can be large or run the other way.

MOLECULE	outcome
COc1cccc2c1C(=O)c1c(O)c3c(c(O)c1C2=O)C[C@@](O)(C(=O)CO)C[C@@H]3O[C@H]1C[C@H](N)[C@H](OC2CCCCO2)[C@H](C)O1 (stereo partly drawn)	inactive
CCCC(=O)O[C@]1(C(=O)CO)CC[C@H]2[C@@H]3CCC4=CC(=O)CC[C@]4(C)[C@H]3[C@@H](O)C[C@@]21C	inactive
CCC(=C/[C@H](C)C/C=C/C(C)=C/[C@@H](C)C(=O)[C@@H](C)[C@H](O)[C@@H](C)C/C(C)=C/C(=O)O)/C=C/[C@@H]1OC(=O)C=C[C@@H]1C	inactive

---

PROTOCOL TEXT: qHTS to identify inhibitors of the type 1 interferon - major histocompatibility complex class I in skeletal muscle: Secondary screen by immunofluorescence; also: nearly all actives have a fitted effect of over 70% in size
CONDITION DETAILS: C25cl48 myoblasts, IFN-b induced HLA-ABC immunofluorescence, 24 h, Viability; series mostly up to 49.8 µM
Results filed as inconclusive are left out. Activity calls are given as the source filed them. Calls follow the shape of the dose curve; as a rule, active = well fitted inhibition curve with a large enough effect; inconclusive = small, poorly fitted or top-dose-only effect; inactive = no such curve, though single readings can be large or run the other way. Numbered stars: 1 amine (or outer) side, 2 acyl side, 3 side chain; on linkers, the order of the positions; unused ones are H or OH. Bridge positions count the residues as written; N and C are the ends. Square brackets hold non-standard residues; d marks the D form. Peptide text beside a SMILES is read from it. I, II: the chains in the order shown. Actinocin(9to1) = Cc1c2oc3c(C)ccc(C(=O)[*:1])c3nc-2c(C(=O)[*:2])c(N)c1=O; NMeV = CN[C@H](C(=O)O)C(C)C; Sar = CNCC(=O)O
Possible outcomes: active, inactive

COMPOUND	CAT
CC(C)[C@H](C(=O)Nc1ccc(C(=O)NO)cc1)c1ccccc1	inactive
CC1(C)CC(=O)c2c(C(F)(F)F)nn(-c3ccc(C(N)=O)c(NC4CCC(OC(=O)CN)CC4)c3)c2C1 (stereo not given)	inactive
CO[C@H]1C(=O)[C@]2(C)[C@@H](OC)C[C@H]3OC[C@@]3(OC(C)=O)[C@H]2[C@H](OC(=O)c2ccccc2)[C@]2(O)C[C@H](OC(=O)[C@H](O)[C@@H](NC(=O)OC(C)(C)C)c3ccccc3)C(C)=C1C2(C)C	inactive
Nc1ccccc1NC(=O)c1ccc(CNc2nccc(-c3cccnc3)n2)cc1	inactive
CC(C)c1cc(-c2n[nH]c(=O)n2-c2ccc3c(ccn3C)c2)c(O)cc1O	inactive
C=C1C(=O)O[C@@H]2[C@H]3O[C@]3(C)CC/C=C(\C)CC[C@@H]12	active
O=C(/C=C/C#Cc1cccc(NS(=O)(=O)c2ccccc2)c1)NO	inactive
Cc1c2oc3c(C)ccc(C(=O)N[C@@H]4C(=O)N[C@H](C(C)C)C(=O)N5CCC[C@H]5C(=O)N(C)CC(=O)N(C)[C@@H](C(C)C)C(=O)O[C@@H]4C)c3nc-2c(C(=O)N[C@@H]2C(=O)N[C@H](C(C)C)C(=O)N3CCC[C@H]3C(=O)N(C)CC(=O)N(C)[C@@H](C(C)C)C(=O)O[C@@H]2C)c(N)c1=O (I: T[dV]P[Sar][NMeV] / II: T[dV]P[Sar][NMeV]; ester I:1-I:C, II:1-II:C; linker I:N-II:N via Actinocin(9to1))	inactive
CC(C)(C)c1nc(-c2cccc(NS(=O)(=O)c3c(F)cccc3F)c2F)c(-c2ccnc(N)n2)s1	inactive
COc1cc2c(cc1-c1c(C)noc1C)ncc1[nH]c(=O)n([C@H](C)c3ccccn3)c12	inactive
O=C(CCCCCCC(=O)Nc1ccccc1)NO	inactive
CCc1c(O)cc(O)c(C(=O)c2ccc(OCCN3CCOCC3)c(OC)c2)c1CC(=O)N(CCOC)CCOC	inactive
C=CC(=O)N1CC/C(=C\c2ccc(F)c([N+](=O)[O-])c2)C(=O)/C(=C/c2ccc(F)c([N+](=O)[O-])c2)C1	active
CC(C)(C)c1cnc(CSc2cnc(NC(=O)C3CCNCC3)s2)o1	inactive
O=C(Nc1nc2cccc(-c3ccc(CN4CCS(=O)(=O)CC4)cc3)n2n1)C1CC1	inactive
CS[C@H]1SC[C@@H]2C(=O)N(C)[C@H](C(C)C)C(=O)OC[C@H](NC(=O)c3cnc4ccccc4n3)C(=O)N[C@H](C)C(=O)N(C)[C@H]1C(=O)N(C)[C@H](C(C)C)C(=O)OC[C@H](NC(=O)c1cnc3ccccc3n1)C(=O)N[C@H](C)C(=O)N2C	inactive
C=CCNC1=C2C[C@@H](C)C[C@H](OC)[C@H](O)[C@@H](C)/C=C(\C)[C@H](OC(N)=O)[C@@H](OC)/C=C\C=C(/C)C(=O)NC(=CC1=O)C2=O	inactive
COc1cc(Nc2ncc(F)c(Nc3ccc4c(n3)NC(=O)C(C)(C)O4)n2)cc(OC)c1OC	inactive
O=C1CN2Cc3c(ccc(Cl)c3Cl)N=C2N1	inactive
CS(=O)(=O)N1CCC(NC(=O)c2[nH]ncc2NC(=O)c2c(Cl)cccc2Cl)CC1	inactive
CC(C)(C)CC(=O)OCC(=O)[C@@]1(O)CC[C@H]2[C@@H]3CCC4=CC(=O)C=C[C@]4(C)[C@H]3[C@@H](O)C[C@@]21C	inactive
O=C(Nc1cn[nH]c1-c1nc2ccc(CN3CCOCC3)cc2[nH]1)NC1CC1	inactive
COc1cccc(-c2cc(F)ccc2[C@H]2Cc3nc(N)nc(C)c3C(=O)N2)n1	inactive
OC1CCC(Oc2cccc3cnc(Nc4ccc5nc[nH]c5c4)nc23)CC1 (stereo not given)	inactive
NS(=O)(=O)OC[C@@H]1C[C@@H](n2ccc3c(N[C@H]4CCc5ccccc54)ncnc32)C[C@@H]1O	inactive
Cc1oncc1C(=O)Nc1ccc(C(F)(F)F)cc1	inactive
C[C@@H]1CCN(C(=O)CC#N)C[C@@H]1N(C)c1ncnc2[nH]ccc12	inactive
CC[C@]1(O)C[C@H]2CN(CCc3c([nH]c4ccccc34)[C@@](C(=O)OC)(c3cc4c(cc3OC)N(C=O)[C@H]3[C@@](O)(C(=O)OC)[C@H](OC(C)=O)[C@]5(CC)C=CCN6CC[C@]43[C@@H]65)C2)C1	inactive
CC[C@@]1(O)C(=O)OCc2c1cc1n(c2=O)Cc2cc3c(CN(C)C)c(O)ccc3nc2-1	inactive
CC(C)CC(=O)Nc1n[nH]c2c1CN(C(=O)C1CCN(C)CC1)C2(C)C	inactive
